Reference source for all entries: patent US20210388087A1

In this section, each of the binders is paired with its reported fold change of affinity.
- target-of-assay: T1, Human CD137 ECD (human)
- T1 construct: also called 4-1BB
- T1 sequence (chain, as listed by the source limits assumed): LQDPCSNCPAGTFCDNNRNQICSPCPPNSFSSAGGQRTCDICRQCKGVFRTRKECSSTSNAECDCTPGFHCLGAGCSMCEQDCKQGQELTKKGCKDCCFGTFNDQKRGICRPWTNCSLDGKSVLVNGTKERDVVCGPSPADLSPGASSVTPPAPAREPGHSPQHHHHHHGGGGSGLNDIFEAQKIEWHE
- experiment: single mutant vs template dBBDu183H
Write the value in fold as a bare number.

Consider the reported fold change of affinity for these binders:
binder | metric-name | measured-number
H183/L072 VH G52cI (antibody, name in Kabat numbering, V domains shown) VH: QVQLVESGGGLVQPGRSLRLSCAASGFTFSNAWMHWVRQAPGKGLEWVAQIKDKINAYAAYYAPSVKGRFTISRDDSKNSIYLQMNSLKTEDTAVYYCHYVHYASASTVLPAFGVDAWGQGTTVTVSS VL: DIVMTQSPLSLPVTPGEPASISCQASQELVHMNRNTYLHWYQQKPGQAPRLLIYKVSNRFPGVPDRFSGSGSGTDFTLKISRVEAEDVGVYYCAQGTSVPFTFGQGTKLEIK | fold change of affinity | 0.7
H183/L072 VH G52cE (antibody, name in Kabat numbering, V domains shown) VH: QVQLVESGGGLVQPGRSLRLSCAASGFTFSNAWMHWVRQAPGKGLEWVAQIKDKENAYAAYYAPSVKGRFTISRDDSKNSIYLQMNSLKTEDTAVYYCHYVHYASASTVLPAFGVDAWGQGTTVTVSS VL: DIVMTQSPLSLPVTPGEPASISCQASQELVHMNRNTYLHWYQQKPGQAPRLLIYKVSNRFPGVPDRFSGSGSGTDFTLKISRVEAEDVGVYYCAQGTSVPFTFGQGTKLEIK | fold change of affinity | 0.8

With those in mind, consider the next binder.
Item under review: H183/L072 VH S62M (antibody, name in Kabat numbering, V domains shown) VH: QVQLVESGGGLVQPGRSLRLSCAASGFTFSNAWMHWVRQAPGKGLEWVAQIKDKGNAYAAYYAPMVKGRFTISRDDSKNSIYLQMNSLKTEDTAVYYCHYVHYASASTVLPAFGVDAWGQGTTVTVSS VL: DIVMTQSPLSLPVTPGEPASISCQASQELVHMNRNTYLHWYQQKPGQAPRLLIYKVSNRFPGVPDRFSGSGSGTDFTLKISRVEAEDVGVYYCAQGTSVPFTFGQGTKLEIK . Reported fold change of affinity?
0.8
